Reported IC50 values are given for each entry in this list.
Target: enkephalin (δ) receptor (Mus musculus, UniProt P32300)
Sequence (P32300 whole entry): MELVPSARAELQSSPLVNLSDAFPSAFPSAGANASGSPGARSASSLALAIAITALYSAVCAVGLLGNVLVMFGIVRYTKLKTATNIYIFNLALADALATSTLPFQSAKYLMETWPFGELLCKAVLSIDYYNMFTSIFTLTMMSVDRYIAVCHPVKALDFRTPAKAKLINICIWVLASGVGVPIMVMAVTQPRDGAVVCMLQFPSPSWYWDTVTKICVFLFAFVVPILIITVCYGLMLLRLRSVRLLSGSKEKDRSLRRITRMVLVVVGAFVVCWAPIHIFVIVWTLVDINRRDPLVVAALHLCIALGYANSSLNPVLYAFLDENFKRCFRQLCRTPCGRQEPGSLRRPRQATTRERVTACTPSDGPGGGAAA
Experiment: mouse vas deferens assay
Settings: depression of 50% of the electrically evoked contraction, field stimulation 0.15 Hz, 37° C.
Give the value, in units of nM, as a plain number.

# Compound, Units Symbol, Observed Measurement
measured = [
    ("CC(=O)C(Cc1ccccc1)NC(=O)CNC(=O)[C@@H](C)NC(=O)[C@@H](N)Cc1ccc(O)cc1 (some centres unmarked)", "nM", 0.49),
]

Okay, now this compound:
Looking up CCN(C(=O)CNC(=O)[C@@H](C)NC(=O)[C@@H](N)Cc1ccc(O)cc1)[C@@H](Cc1ccccc1)C(C)=O , I see its IC50 listed as 0.71
